# Tested on: gene editing with Cas9
# METHOD: Screen of 322 new SSAP proteins, gene editing activity with Cas9 (Table 5)
# Format: cell-based
# CONDITION SUMMARY: normalized
Respond with rule met for Cas9 with SSAP activity (normalized) values of -0.6 and above, rule not met for values below.

Task: Is the recorded value of Cas9 with SSAP activity (normalized) equal to or greater than -0.6 for this molecule? SSAP_9: SEQ ID NO: 178; Bet Gammaproteobacteria (protein, Gammaproteobacteria, Bet Gammaproteobacteria) EKPKLIQRFAERFSVDPNKLFDTLKATAFKQRDGSAPTNEQMMALLVVADQYGLNPFTKEIFAFPDKQAGIIPVVGVDGWSRIINQHDQFDGMEFKTSENKVSLDGAKECPEWMECIIYRRDRSHPVKITEYLDEVYRPPFEGNGKNGPYRVDGPWQTHTKRMLRHKSMIQCSRIAFGFVGIFDQDEAERIIEGQATHVVEPSVIPPEQVDDRTRGLVYKLIERAEASNAWNSALEYANEHFQGVELTFAKQEIFNAQQQAAKALTQPLAS
Result: rule not met

Task: Is the recorded value of Cas9 with SSAP activity (normalized) equal to or greater than -0.6 for this molecule? SSAP_148: SEQ ID NO: 317; Corynebacterium liangguodongii (protein, listed as Corynebacterium liangguodongii) KDLETRMAANQQPAQQRPTTLADQIRGMEQQFALAMPKGAEASQLVRDALTALRQAPKLAQCTPQSVLGSLMTCAQLGLRPGVLGHAYLIPFYDRRAGGLVAQLVIGYQGLVELAHRSGQIKSLIARTVYENDVFDVDYGLEDKLVHKPYMGGDKGQPIAYYAVAKFTTGGHAFYVMSHPEMLDYRARFAKSAERGPWVDNFEAMALKTCVRQLSKWMPKSTELATAIAADESVRVDLTPDAINYPEHVDGEVVDAQGTTEDTAGEGEQSA
Result: rule met

Task: Is the recorded value of Cas9 with SSAP activity (normalized) equal to or greater than -0.6 for this molecule? SSAP_170: SEQ ID NO: 339; Dorea longicatena (protein, listed as Dorea longicatena) TVGKTDEIKQELARKVENTKAGTKLKKSMSIADMIKVMEPQIKKALPEVITPERFTRMALSALNTTPKLNECTPMSFLAALMNAAQLGLEPNTPLGQAFLIPYNNKGKMECQFQLGYKGLIDLSYRNPNMQIITAHTVYENDEFEYELGLNPCLDHRPTLGERGEIRLFYGLFKLTNGGFGFEVMSKTAMDDFAKEYSKAFDSSFSPWRTNYESMALKTIIKKALKYAPLKSEFRNALSTDETIKNEIGADMSEINSENIFDTVYQEECA
Result: rule met

Task: Is the recorded value of Cas9 with SSAP activity (normalized) equal to or greater than -0.6 for this molecule? SSAP_151: SEQ ID NO: 320; Mammaliicoccus (protein, listed as Mammaliicoccus sp.) ATNESIKNQVASRKKNEVQNKSPKTQLNDLLIKMGPEIQRALPKHMDADRMARIAMTAVSTTPKLLECDQMSFIGALMQASQLGVEPNTGLGQAYLIPYGGKVQFQLSYKGLIDLATRSGQYKAIYAHEVFPNDEFNYQYGLFKNLEHIPSQEPEGEPIGYYAVYHLKNGGYDFVYWTRERVDKHAKDFSQAVQKGWTSPWKTNYDAMAKKTVLKEVLKYAPKSIEMNKAVNSDSTIKDEINEDMSSVIDITDYEEVNDQQEEKKEESK
Result: rule not met

Task: Is the recorded value of Cas9 with SSAP activity (normalized) equal to or greater than -0.6 for this molecule? SSAP_96: SEQ ID NO: 265; Plesiomonas shigelloides (protein, Plesiomonas shigelloides) SNQRPPIATADLQKAQSQPPAAKPEQNLINFINQPSMKSQIAAALPRHMAPERMIRIITTEIRKTPKLATCDVQSFIGAVVQCSQLGLEPGGGLGHAYLLPFGNGKAESGKPNVQLIIGYRGMIDLARRSGQIVSISSRIVREGDQFHYEYGLNETLKHVPGDNESAPITHVYAVAKLKDGGTQFEVMSFNEIEKIRGQSKAGNDGPWIKHWEEMAKKTVIRRLFKYLPVSIEMQRAVILDEKAEADIEQDNASIIGAEYSVVENAA
Result: rule not met

Task: Is the recorded value of Cas9 with SSAP activity (normalized) equal to or greater than -0.6 for this molecule? SSAP_85: SEQ ID NO: 254 (protein) TASKQTDIFSFVSGGEDITITLADIKNYFCANATDQECVLFGQLCKANGLNPWLKEAYLIKYDKNAPAAMVTGKDAYMKRANEHPAFDGYEAGVKVYLPDVGQVEYREGTAYYEDLGEQLIGGYAKVYRKDRSRPYYEEVPLKEYDTKQSKWKTSPATMIRKVALVHALREAFPTNIQGMYDADETPYAADYEGSFREMDDPTPAPSMRGRIAPAPVADPLEDLEADVIEAGDVE
Result: rule met

Task: Is the recorded value of Cas9 with SSAP activity (normalized) equal to or greater than -0.6 for this molecule? SSAP_247: SEQ ID NO: 416; Ruminococcus sp. CAG: 579 (protein, listed as Ruminococcus sp.) NERTNLQYAPAPVERFKECLNSHEIKARLKNSLKNNWTQFQTSMLDLYSGDAYLQKCDPMAVALECVKAATLDLPISKSLGFAYVVPYNNVPTFTLGYKGLIQLAQRTGQYRTINADVVYEGEIRGADKLSGMVDLSGERTGDEVVGYFAYFKLINGFEKMIYMTRAEAEKWRDDYSPSAKSKYSPWRTDFDKMALKTCIRRLISKYGIMSVEMQGVMTEEAEPRAAAAAKRAEETVQANANSKVIDIDAAPPAANESPAEAAPQPDF
Result: rule not met

Task: Is the recorded value of Cas9 with SSAP activity (normalized) equal to or greater than -0.6 for this molecule? SSAP_176: SEQ ID NO: 345; Absicoccus porci (protein, listed as Absicoccus porci) TTTNQQGMITKKANNSVAKKTNRTMKDYITMYQGEIAKALPSVMTPERFVRIATTAVTNTPKLASCTPQSFIGALLNAAQLGLEPNTPLGQAYLIPYGNQCQFQIGYLGMVELAQRAGTNVDAHVVYANDEFDYSLGLHPDIKHVPAMKDRGEAIAYYAVWHNGENFGFEVMSREDVEKHMKKYSKTYSNGPWKTEFDEMAKKTVLKRALKYAPKKTDLARAVMQDETIKQFNPKADNDMADAKNDFFDVEYDEVDENTDPVTGEVK
Result: rule met
